Tested on: NCI-H1568 (Lung Adenocarcinoma)
Experiment: Bliss excess, mean over the matrix (fraction); higher = more synergy
ENDPOINT LABEL: Bliss excess
One number for each entry.

Reference set (3 entries):
COMPOUND	MEASUREMENT
Cn1cnc2c(F)c(Nc3ccc(Br)cc3Cl)c(C(=O)NOCCO)cc21 [Selumetinib] + C=CCn1c(=O)c2cnc(Nc3ccc(N4CCN(C)CC4)cc3)nc2n1-c1cccc(C(C)(C)O)n1 [AZD1775] (first compound max 10 µM, partner max 1 µM)	-0.0331
CC1(C)CCC(CN2CCN(c3ccc(C(=O)NS(=O)(=O)c4ccc(NCC5CCOCC5)c([N+](=O)[O-])c4)c(Oc4cnc5[nH]ccc5c4)c3)CC2)=C(c2ccc(Cl)cc2)C1 [Venetoclax] + C[C@@H](Nc1cc(F)cc(F)c1)c1cc(C(=O)N(C)C)cc2c(=O)cc(N3CCOCC3)oc12 [AZD8186] (first compound max 1 µM, 7x7, partner max 3 µM)	-0.0408
C[C@@H]1COCCN1c1cc(C2([S@](C)(=N)=O)CC2)nc(-c2ccnc3[nH]ccc23)n1 [AZD6738] + O=C(c1cc(Cc2n[nH]c(=O)c3ccccc23)ccc1F)N1CCN(C(=O)C2CC2)CC1 [Olaparib] (first compound max 10 µM, 7x7, partner max 10 µM)	-0.0358

Then this compound:
[in] Consider the compound COc1cccc(OCCCN)c1-c1cc(Nc2cnc(C#N)cn2)n[nH]1 [Prexasertib] + CCc1c2c(nc3ccc(O)cc13)-c1cc3c(c(=O)n1C2)COC(=O)[C@]3(O)CC [SN-38] (first compound max 1 µM, 7x7, partner max 0.3 µM) and give its measured Bliss excess.
[out] 0.0165

* * *

System: NCI-H1568 (Lung Adenocarcinoma)
Assay: combination Emax (second highest fraction inhibited in the dose matrix, 72 h); higher = more inhibition; extreme values may be limits of the assay
ENDPOINT LABEL: combination Emax
Numbers only.

# annotated cases, reported combination Emax shown
COMPOUND	combination Emax
CN(C)CCCOc1ccc(-c2ccc3ncc4c(c3c2)n(C2CCOCC2)c(=O)n4C)cn1 [AZD0156] + C[C@@H]1COCCN1C2=NC(=NC(=C2)C3(CC3)[S@](=N)(=O)C)C4=C5C=CNC5=NC=C4 [AZD6738] (first compound max 1 µM, 7x7, partner max 10 µM)	0.49
NC1(C(=O)N[C@@H](CCO)c2ccc(Cl)cc2)CCN(c2ncnc3[nH]ccc23)CC1 [Capivasertib] + C[C@@H]1COCCN1C2=NC(=NC(=C2)C3(CC3)[S@](=N)(=O)C)C4=C5C=CNC5=NC=C4 [AZD6738] (first compound max 10 µM, 7x7, partner max 10 µM)	0.664
CC(=O)c1c(C)c2cnc(Nc3ccc(N4CCNCC4)cn3)nc2n(C2CCCC2)c1=O [Palbociclib] + CN(CC[C@H](CSC1=CC=CC=C1)NC2=C(C=C(C=C2)S(=O)(=O)NC(=O)C3=CC=C(C=C3)N4CCC(CC4)[C@H](C5=CC=CC=C5C6=CC=C(C=C6)Cl)O)S(=O)(=O)C(F)(F)F)CCO [AZD4320] (first compound max 10 µM, 7x7, partner max 1 µM)	0.515

[in] Would you mind telling me what combination Emax value was observed for Cc1c2c(nn1C)CSCc1cc(n(C)n1)CSc1cc(c3ccccc3c1)OCCCc1c(C(=O)O)n(C)c3c-2c(Cl)ccc13 [AZD5991] + C=CCn1c(=O)c2cnc(Nc3ccc(N4CCN(C)CC4)cc3)nc2n1-c1cccc(C(C)(C)O)n1 [AZD1775] (first compound max 1 µM, partner max 1 µM) ?
[out] 0.434
